The origin of these recorded values is ChEMBL document CHEMBL1201862.

System: 786-0
test.details: NCI tumour cell line growth inhibition, 48 h
Activity calls are given as the source filed them. Rule as the data show it: active = GI50 up to about 1.1 µM and inactive = higher.
quantity.measured: GI50

>>> df
                                    compound       value_reported
 0  CC(=O)NC1(NC(C)=O)C2CC(C1Cc1ccccc1)C(C)(C)C2C (stereo not drawn)  > 100 µM (inactive)
 1  COc1ccc(-c2cc(-c3ccc(Nc4ccnc5cc(Cl)ccc45)cc3)nc(N)c2C#N)cc1  > 100 µM (inactive)
 2  CN1C/C(=C\c2ccccc2)C2=NN(C(N)=S)[C@H](c3ccccc3)[C@@H]2C1     64 µM (inactive)
 3  O=[N+]([O-])c1ccc(NC(=S)N/N=C(\c2ccccc2)c2ccccn2)cc1   1.25 µM (inactive)
 4  C=C(C)C1CC=C(C)C2(C1)OCC(C)(C)C(C)O2 (stereo not drawn)   17.6 µM (inactive)
 5  NCCNc1ccc(NCCN)c2c1C(=O)c1c(O)ccc(O)c1C2=O  0.00459 µM (active)
 6  COc1cc(NC(C)=O)c2[nH]c3c(C)cc(NC(C)=O)c(C)c3c2c1  > 100 µM (inactive)
 7  O=C1Nc2cccc3cc(NCC(O)CCl)cc1c23 (stereo not drawn)     55 µM (inactive)
 8  O=C(/C=C/c1ccc(O)c(O)c1)NCCc1ccc(-c2ccccc2)cc1   49.7 µM (inactive)
 9  O=C(O)CSc1ccc([N+](=O)[O-])cc1[N+](=O)[O-]  > 100 µM (inactive)
10  Cc1cc(C)c(S(=O)(=O)N(CCCCCCN)OCCCON(CCCCCCN)S(=O)(=O)c2c(C)cc(C)cc2C)c(C)c1    1.9 µM (inactive)
11     c1ccc(CSCCC(SCc2ccccc2)SCc2ccccc2)cc1   > 10 µM (inactive)
12                     Cc1c(Cl)ccc2[s+]snc12   19.1 µM (inactive)
13  N#CCC(=O)N/N=C\C(O)C(O)C(O)C(O)CO (stereo not drawn)  > 100 µM (inactive)
14  CC1=NN(c2cccc(Cl)c2)C(=N/c2nc3ccccc3s2)/C1=C\C=C\c1ccccc1   41.4 µM (inactive)
15         COC1(OC)c2occc2C(=N)c2ccc(=O)oc21  > 100 µM (inactive)
16  COC(=O)c1cc(C)ccc1C1CN=NC12Cc1ccc(C)cc1C2=O (stereo not drawn)  > 100 µM (inactive)
17           CCOC(=O)c1ccc(-c2cc(C)no2)[nH]1  > 100 µM (inactive)
18  CCCC(=O)OCC1OC(n2cc(F)c(=O)[nH]c2=O)CC1O (stereo not drawn)    0.337 µM (active)
19  CC1C2CC(C(S(=O)(=O)N3CCOCC3)/C2=N\O)C1(C)C (stereo not drawn)  > 100 µM (inactive)
20   O=C1NC(=O)c2ccc([N+](=O)[O-])c3cccc1c23     14 µM (inactive)
21        CN(C)CC(C)(C)CN1c2ccccc2Sc2ccccc21   12.9 µM (inactive)
22  C[N+]12CCCCC1C(COc1cccc3cccnc13)CCC2 (stereo not drawn)  > 100 µM (inactive)
23  CC(=O)OCC1OC(NC(=S)CCSc2nc3ccccc3c(=O)n2-c2ccccc2)C(OC(C)=O)C(OC(C)=O)C1OC(C)=O (stereo not drawn)   63.2 µM (inactive)
24  COC(c1ccccc1)C(c1ccccc1)N1CCOCC1 (stereo not drawn)  > 100 µM (inactive)
25              COc1cc(CCc2cccnc2)cc(OC)c1OC  > 100 µM (inactive)
26     CCOP(=O)(OCC)[C@H]1OC(C)(C)O[C@@H]1CO  > 100 µM (inactive)
27  COc1cc(OCc2ccc3nc(-c4ccccc4)c(N)nc3c2)cc(OC)c1OC   30.8 µM (inactive)
28  O=C1C2C3C=C4c5ccccc5N(c5ccccc5)C4(C2C(=O)N1c1ccc(Cl)cc1)[C@H]1C(=O)N(c2ccc(Cl)cc2)C(=O)[C@@H]31 (stereo partly drawn)  > 100 µM (inactive)
29             O=C1Nc2ccc(Br)cc2C1=Nc1cccnc1   20.5 µM (inactive)
30      Nn1c(SCC(=O)NCc2ccccc2)nc2ccccc2c1=O   55.6 µM (inactive)
31  CC(=O)O[C@H]1CC[C@@]2(C)C(=CC[C@H]3[C@@H]4C[C@H](N5CCCC5)[C@H](OC(C)=O)[C@@]4(C)CC[C@@H]32)C1  > 100 µM (inactive)
32  COc1ccc(OC)c(C23CCCC(C2)N(C)CC3)c1 (stereo not drawn)   25.3 µM (inactive)
33  O=C1Nc2ccccc2N=CC1NC(=O)C(c1ccccc1)c1ccccc1 (stereo not drawn)  > 100 µM (inactive)
34      Cc1ccc(-c2cc(O)c3cc4c(cc3n2)OCO4)cc1   1.78 µM (inactive)
35           c1ccc2sc(SCSc3nc4ccccc4s3)nc2c1   82.4 µM (inactive)
36  CC12CCC(=O)C[C@H]1CCC(OC=O)C2Br (stereo partly drawn)  > 100 µM (inactive)
37  CCCCCCCCCCC1OC([C@@H](O)CC[C@H](O)C2CC[C@@H](CCCCCCCC(O)CC3=CC(C)OC3=O)O2)CCC1O (stereo partly drawn)   11.5 µM (inactive)
38  Cn1c(C(C#N)c2cc(Cl)ncn2)nc2ccccc21 (stereo not drawn)  > 100 µM (inactive)
39    Cc1c(C)c2cc3c(=O)c(CCl)coc3c(C)c2oc1=O   60.5 µM (inactive)
40       O=c1c2c3ccccc3[nH]c2c2cccc3c2n1CCC3   4.27 µM (inactive)
41  C=CCN(C(C)=O)c1cc(OCc2ccccc2)c2c(c1)c(C)cn2S(=O)(=O)c1ccccc1   6.21 µM (inactive)
42  CC(C)C1=CC23CCC4C(C)(C(=O)O)CCCC4(C)C2CC1C1C(=O)N(c2ccc(C(=O)O)cc2)C(=O)C13 (stereo not drawn)  > 100 µM (inactive)
